From: ChEMBL document CHEMBL5331060

# Test system: MCF7
# test.summary: Antiproliferative activity against human MCF7 cells assessed as inhibition of cell growth incubated for 72 hrs by SRB assay
# Type: functional, cell-based
# test.settings: MCF7, 72 h
endpoint.name: IC50

Consider the reported IC50 for these compounds:
Return reported IC50; argument: CC[C@@H]1CN(C)[C@H]2Cc3c([nH]c4ccccc34)[C@H](c3cc4c5c([nH]c4cc3OC)[C@@]3(C(=O)OC)C[C@H]4C[C@@H](CC)[C@@H]3N(CC5)C4)C[C@H]1[C@@H]2C(=O)OC
< 10 µM

Return reported IC50; argument: CC[C@@H]1CN(C)[C@H]2Cc3c([nH]c4ccccc34)[C@H](c3ccc4c5c([nH]c4c3)[C@@H]3C[C@@H]4C[C@H](CC)[C@@H]3N(CC5)[C@@H]4CC(C)=O)C[C@H]1[C@@H]2C(=O)OC
< 10 µM

I have 2 compounds here; please give me IC50 for each one.
1. CC[C@@H]1CN(C)[C@H]2Cc3c([nH]c4ccccc34)[C@H](c3c(OC)ccc4c5c([nH]c34)[C@]3(C(=O)OC)C[C@@H]4C[C@H](CC)[C@@H]3N(CC5)[C@@H]4CC(C)=O)C[C@H]1[C@@H]2C(=O)OC
2. CC[C@@H]1CN(C)[C@H]2Cc3c([nH]c4ccccc34)[C@H](c3ccc4c5c([nH]c4c3)[C@]3(C(=O)OC)C[C@@H]4C[C@H](CC)[C@@H]3N(CC5)C4)C[C@@H]1[C@@H]2C(=O)OC

["10.9 µM", "< 10 µM"]
